Origin of the recorded values: the NIST ThermoML archive (doi:10.1016/j.jct.2012.11.014)

Recorded speed of sound for the following molecules
# condition description: 298.15 K; 101 kPa; Liquid; Frequency=2 MHz; Linear variable-path acoustic interferometer
Use m/s as the unit, but write only the number.

Solved entries:
C[NH+](C)C.O=S(=O)([O-])O [trimethylammonium hydrogen sulfate]	1564
C[S+](C)[O-] [dimethyl sulfoxide]	1496
C[NH+](C)C.O=P([O-])(O)O [trimethylammonium dihydrogen phosphate]	1672

Now take the following molecule into account.
Recorded speed of sound for CC(=O)[O-].C[NH+](C)C [trimethylammonium acetate] , please? 1544
